Molecular target: E. coli SASX38 strain having pBAtPX-RC with Arabidopsis thaliana resistant type protoporphyrinogen oxidase cDNA (Arabidopsis thaliana, UniProt P55826, A220V)
Experiment: Growth inhibition of E. coli SASX38 (liquid culture with shaking)
Record form. Attribute: IC50. Fill in for each entry.
Entry rule: numbers only, all in µM.

Summary for this compound, "Cn1nc(-c2ccc(Cl)cc2F)c(Cl)c1OC(F)F" : IC50 is 8.7

Summary for this compound, "CCOC(=O)COc1cc(-c2nn(C)c(OC(F)F)c2Cl)c(F)cc1Cl" : IC50 is 1.5

Summary for this compound, "COc1cc(-c2nn(C)c(OC(F)F)c2Cl)c(F)cc1Cl" : IC50 is 1.8

Summary for this compound, "C#CCOc1cc(-c2nn(C)c(OC(F)F)c2Cl)c(F)cc1Cl" : IC50 is 0.28

Summary for this compound, CCOC(=O)C(C)Oc1cc(-c2nn(C)c(OC(F)F)c2Cl)c(F)cc1Cl (stereo not shown) : IC50 is 4

Summary for this compound, CCOC(=O)C(C)Nc1cc(-c2nn(C)c(OC(F)F)c2Cl)c(Cl)cc1Cl (stereo not shown) : IC50 is 18

Summary for this compound, "CC(C)OC(=O)c1cc(-c2nn(C)c(C(F)(F)F)c2Br)c(F)cc1Cl" : IC50 is 6.4

----------
Record form. Attribute: IC50. Fill in for each entry.
Molecular target: E. coli SASX38 strain having pBAtPX-C with Arabidopsis thaliana wild type protoporphyrinogen oxidase gene (Arabidopsis thaliana)
Construct: expressed in transfected cells; host or cells: E. coli SASX38 (hemG-deficient) carrying pBAtPX-C (pBluescript SK(-))
Sequence (P55826 35-537): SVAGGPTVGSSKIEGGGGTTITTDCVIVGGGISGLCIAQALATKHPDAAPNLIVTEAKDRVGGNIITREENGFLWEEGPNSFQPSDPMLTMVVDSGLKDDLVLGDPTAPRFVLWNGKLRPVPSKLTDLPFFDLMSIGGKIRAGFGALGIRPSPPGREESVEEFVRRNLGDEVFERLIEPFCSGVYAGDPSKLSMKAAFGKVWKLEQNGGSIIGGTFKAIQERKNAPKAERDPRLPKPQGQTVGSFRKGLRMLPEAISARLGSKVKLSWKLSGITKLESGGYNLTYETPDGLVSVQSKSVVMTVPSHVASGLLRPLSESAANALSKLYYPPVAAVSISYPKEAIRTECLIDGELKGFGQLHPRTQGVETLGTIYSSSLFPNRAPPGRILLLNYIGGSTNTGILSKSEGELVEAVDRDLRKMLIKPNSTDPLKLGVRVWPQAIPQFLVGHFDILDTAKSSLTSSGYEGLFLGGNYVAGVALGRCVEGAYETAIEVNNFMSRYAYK
Assay: Growth inhibition of E. coli SASX38 (liquid culture with shaking)
Format: cell-based
Entry rule: numbers only, all in nM.

Summary for this molecule, CCOC(=O)C(C)Nc1cc(-c2nn(C)c(OC(F)F)c2Cl)c(Cl)cc1Cl (centres unmarked) : IC50 is 21

Summary for this molecule, "Cn1nc(-c2ccc(Cl)cc2F)c(Cl)c1OC(F)F" : IC50 is 19

Summary for this molecule, "C#CCOc1cc(-c2nn(C)c(OC(F)F)c2Cl)c(F)cc1Cl" : IC50 is 0.14

Summary for this molecule, "COc1cc(-c2nn(C)c(OC(F)F)c2Cl)c(F)cc1Cl" : IC50 is 3

Summary for this molecule, CCOC(=O)C(C)Oc1cc(-c2nn(C)c(OC(F)F)c2Cl)c(F)cc1Cl (centres unmarked) : IC50 is 4.2

----------
Target: E. coli SASX38 strain having pCR-RC with tobacco resistant type protoporphyrinogen oxidase gene (Nicotiana tabacum, UniProt O24163, A174P/A191P/A231V/T382S)
Sequence (O24163 whole entry A174P/A191P/A231V/T382S): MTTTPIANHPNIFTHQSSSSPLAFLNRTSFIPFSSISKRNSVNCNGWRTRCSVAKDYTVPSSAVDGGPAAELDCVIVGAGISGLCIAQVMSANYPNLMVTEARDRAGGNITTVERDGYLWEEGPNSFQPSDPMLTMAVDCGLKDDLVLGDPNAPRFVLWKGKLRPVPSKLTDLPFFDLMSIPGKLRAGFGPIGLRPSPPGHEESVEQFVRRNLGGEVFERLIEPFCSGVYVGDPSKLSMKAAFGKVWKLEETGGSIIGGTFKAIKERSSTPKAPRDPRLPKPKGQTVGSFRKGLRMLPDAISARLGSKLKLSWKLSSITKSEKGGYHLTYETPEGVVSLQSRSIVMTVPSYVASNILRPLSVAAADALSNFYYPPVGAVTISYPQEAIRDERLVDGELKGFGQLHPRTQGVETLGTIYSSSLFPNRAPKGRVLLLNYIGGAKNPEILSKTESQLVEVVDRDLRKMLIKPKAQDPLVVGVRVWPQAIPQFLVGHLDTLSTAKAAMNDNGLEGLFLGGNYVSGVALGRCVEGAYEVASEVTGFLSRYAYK
Test: Growth inhibition of E. coli SASX38 (liquid culture with shaking)
QUANTITY NAME: pIC50
Quick note: pIC50 means taking -log10 of the concentration in moles per liter.

Summary for this molecule, "Cn1nc(-c2ccc(Cl)cc2F)c(Cl)c1OC(F)F" : pIC50 is 4.77

Summary for this molecule, CCOC(=O)C(C)Oc1cc(-c2nn(C)c(OC(F)F)c2Cl)c(F)cc1Cl (stereo not shown) : pIC50 is 5.20

Summary for this molecule, "COc1cc(-c2nn(C)c(OC(F)F)c2Cl)c(F)cc1Cl" : pIC50 is 5.66

Summary for this molecule, "C#CCOc1cc(-c2nn(C)c(OC(F)F)c2Cl)c(F)cc1Cl" : pIC50 is 6.17

Summary for this molecule, "CC(C)OC(=O)c1cc(-c2nn(C)c(C(F)(F)F)c2Br)c(F)cc1Cl" : pIC50 is 4.82

----------
System: E. coli SASX38 strain having pCR-RC with tobacco resistant type protoporphyrinogen oxidase gene
Assay: Growth inhibition of E. coli SASX38 (liquid culture with shaking)
Type: cell-based, Nicotiana tabacum
Settings: b/a: tobacco R/S over Arabidopsis thaliana R/S
QUANTITY NAME: Superiority c)
Lab note: jot the number down without any unit.

Summary for this molecule, CC(C)OC(=O)c1cc(-c2nn(C)c(C(F)(F)F)c2Br)c(F)cc1Cl [Comp.F] : Superiority c) is 16.8

Summary for this molecule, CCOC(=O)C(C)Oc1cc(-c2nn(C)c(OC(F)F)c2Cl)c(F)cc1Cl (stereo not drawn) [Comp.E] : Superiority c) is 12.6

Summary for this molecule, C#CCOc1cc(-c2nn(C)c(OC(F)F)c2Cl)c(F)cc1Cl [Comp.D] : Superiority c) is 12.5

Summary for this molecule, COc1cc(-c2nn(C)c(OC(F)F)c2Cl)c(F)cc1Cl [Comp.C] : Superiority c) is 14.7

Summary for this molecule, Cn1nc(-c2ccc(Cl)cc2F)c(Cl)c1OC(F)F [Comp.G] : Superiority c) is 12.0

----------
Target: E. coli SASX38 strain having pBAtPX-C with Arabidopsis thaliana wild type protoporphyrinogen oxidase gene (Arabidopsis thaliana, UniProt P55826)
Construct: expressed in transfected cells; host or cells: E. coli SASX38 (hemG-deficient) carrying pBAtPX-C (pBluescript SK(-))
Assay: Growth inhibition of E. coli SASX38 (liquid culture with shaking)
Format: cell-based
Settings: E. coli liquid culture method with shaking; read-out: I50 (nM) Arabidopsis thaliana Wild
QUANTITY NAME: IC50
// return the numeric value with its unit appended

Summary for this compound, CC(C)OC(=O)c1cc(-c2nn(C)c(C(F)(F)F)c2Br)c(F)cc1Cl [Comp.F] : IC50 is 23 nM

----------
Record form. Attribute: pIC50. Fill in for each entry.
Target: E. coli SASX38 strain having pCR-HC with tobacco wild type protoporphyrinogen oxidase cDNA (Nicotiana tabacum, UniProt O24163)
Construct: expressed in transfected cells; host or cells: E. coli SASX38 (hemG-deficient) carrying pCR-HC
Sequence (O24163 51-548): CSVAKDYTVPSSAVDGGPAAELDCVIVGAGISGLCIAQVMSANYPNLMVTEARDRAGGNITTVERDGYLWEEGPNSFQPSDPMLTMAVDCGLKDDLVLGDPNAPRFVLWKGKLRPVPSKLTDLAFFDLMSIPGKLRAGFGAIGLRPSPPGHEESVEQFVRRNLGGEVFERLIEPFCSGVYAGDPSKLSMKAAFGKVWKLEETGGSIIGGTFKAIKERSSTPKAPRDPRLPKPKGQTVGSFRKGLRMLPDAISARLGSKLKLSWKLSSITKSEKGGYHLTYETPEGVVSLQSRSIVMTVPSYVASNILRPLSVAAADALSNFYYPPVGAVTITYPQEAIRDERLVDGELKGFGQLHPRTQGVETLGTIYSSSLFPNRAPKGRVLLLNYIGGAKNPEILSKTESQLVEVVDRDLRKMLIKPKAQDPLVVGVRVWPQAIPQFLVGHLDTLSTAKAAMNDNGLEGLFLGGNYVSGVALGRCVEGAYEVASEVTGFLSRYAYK
Assay: Growth inhibition of E. coli SASX38 (liquid culture with shaking)
Assay type: cell-based
Quick note: pIC50 means taking -log10 of the concentration in moles per liter.

Summary for this compound, CCOC(=O)C(C)Nc1cc(-c2nn(C)c(OC(F)F)c2Cl)c(Cl)cc1Cl (centres unmarked) : pIC50 is 8.66

Summary for this compound, "C#CCOc1cc(-c2nn(C)c(OC(F)F)c2Cl)c(F)cc1Cl" : pIC50 is 10.57

Summary for this compound, "COc1cc(-c2nn(C)c(OC(F)F)c2Cl)c(F)cc1Cl" : pIC50 is 9.60

Summary for this compound, CCOC(=O)C(C)Oc1cc(-c2nn(C)c(OC(F)F)c2Cl)c(F)cc1Cl (centres unmarked) : pIC50 is 9.28

Summary for this compound, "Cn1nc(-c2ccc(Cl)cc2F)c(Cl)c1OC(F)F" : pIC50 is 8.51

Where these numbers come from: patent US6905852B1
